- Test system: Tov112D
- protocol.details: Primary qHTS to identify gynecologic anti-cancer compounds using libraries of approved drugs and bioactive compounds (AID 1345084); further: nearly all actives have a fitted effect of over 55% in size
- stated.conditions: Gynecologic cancer cell panel viability, ATPlite luminescence, 48 h; series mostly up to 57.5 µM
Records with an inconclusive call do not appear. Activity calls are given as the source filed them. The call rests on the fitted dose curve; in most records, active means well fitted cell-killing curve with a large enough effect; inconclusive means small, poorly fitted or top-dose-only effect, or effect the other way; inactive means flat fitted curve, though single readings scatter.
I would appreciate it if you answered using one of these outcomes: T = active, F = inactive

{"columns": ["compound", "class.name"],
 "data": [
  ["C=C(CCC1=C(C)[C@H]2[C@H](CC3[C@@H]4CC=C5C[C@@H](O)C[C@@H](O)[C@]5(C)C4[C@H](O)C[C@@]32C)O1)CO[C@@H]1O[C@H](CO)[C@@H](O)[C@H](O)[C@H]1O (some centres undefined)", "T"],
  ["O=C(c1ccc2nccnc2c1)N1CCCCC1", "F"],
  ["C[C@H](Oc1ccc(S(C)(=O)=O)cc1C(=O)N1CCN(c2ncc(C(F)(F)F)cc2F)CC1)C(F)(F)F", "F"]
]}

stdin: What outcome does the record of this test show for COc1c2c(c(C)c3c1C(=O)OC3)OC1(C)CC(O)C34OC(OC)(OC3(C)C)C(O)CC4(C)C1C2 (centres undefined) ?
stdout: F

###

- protocol.details: Primary fluorescence-based thiol-reactive (MSTI) qHTS assay for identification of artifact compounds. (AID 1845221);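 further: thiol-reactive compounds lower the probe fluorescence signal; nearly all actives have a fitted effect of over 65% in size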
- stated.conditions: MSTI thiol-reactivity probe, 1 h; series mostly up to 53.8 µM
Records with an inconclusive call do not appear. Activity calls are given as the source filed them. Calls follow the shape of the dose curve; as a rule, active = well fitted inhibition curve with a large enough effect; inconclusive = small, poorly fitted or top-dose-only effect; inactive = no such curve, though single readings can be large or run the other way.
I would appreciate it if you answered using one of these outcomes: active, inactive

Solved cases (5 shown):
{"columns": ["molecule", "class.name"],
 "data": [
  ["COc1ccc(-c2cnc(-c3cccc4c3-c3ccccc3C4=O)o2)cc1", "inactive"],
  ["CC1CCC2(C(=O)O)CCC3(C)C(=CCC4C5(C)CCC(O)C(C)(CO)C5CCC43C)C2C1(C)O (configuration not stated)", "inactive"],
  ["COc1cc(C(=O)NC2CCN(C)CC2)ccc1Nc1ncc2c(n1)N(C1CCCC1)CC(F)(F)C(=O)N2C", "inactive"],
  ["COC(=O)CC(O)CC(O)/C=C/c1c(C)ccc2c1C(O)CC(C)C2 (configuration not stated)", "inactive"],
  ["CCCC1(c2ccccc2)NC(=O)N(CC(=O)N(C)Cc2c(F)cccc2Cl)C1=O (configuration not stated)", "inactive"]
]}

stdin: What outcome does the record of this test show for CC(=O)OC1C[C@@]2(C)[C@@H](CC[C@@H](C)[C@]23Cc2c(O)cc4c(c2O3)CNC4=O)C(C)(C)[C@@H]1O (some centres not stated) ?
stdout: inactive

stdin: What outcome does the record of this test show for `Cc1cccc(C)c1OCc1cc(C(=O)N2CCC(c3ccncc3)CC2)no1` ?
stdout: inactive

stdin: What outcome does the record of this test show for `Cc1csc(NC(=O)c2ccc(COc3cccc(Cl)c3)o2)n1` ?
stdout: inactive

stdin: What outcome does the record of this test show for `Clc1cc2c(NC3CCCC3)nnc(-c3ccncc3)c2cc1Cl` ?
stdout: inactive

stdin: What outcome does the record of this test show for `O=C(CSc1nc2c(c(=O)n1-c1ccccc1)SCC2)Nc1ccc(-c2ccccc2)cn1` ?
stdout: inactive

###

- Test system: C33A
- protocol.details: Primary qHTS to identify gynecologic anti-cancer compounds using libraries of approved drugs and bioactive compounds (AID 1345084); further: nearly all actives have a fitted effect of over 55% in size; on activity change, negative = cytotoxicity: on the % scale 0 is the no-effect control and ±100 the full control effect
- stated.conditions: Gynecologic cancer cell panel viability, ATPlite luminescence, 48 h; series mostly up to 57.5 µM
Records with an inconclusive call do not appear. The source made the active and inactive calls. Calls come from the whole dose curve; as a rule, active = well fitted cell-killing curve with a large enough effect; inconclusive = small, poorly fitted or top-dose-only effect, or effect the other way; inactive = flat fitted curve, though single readings scatter.
readout.type: activity change, negative = cytotoxicity

These solved cases illustrate the format of a correct answer.
{"columns": ["molecule", "reported"],
 "data": [
  ["Cc1oc2ccccc2c1CNC(=O)NCc1cccs1", "inactive"],
  ["C=CC(C)(CC/C=C(\\C)C(=O)OC)OC1OC(COC(=O)CC(C)(O)CC(=O)O)C(OC2OC(CO)C(O)C(O)C2O)C(O)C1O (stereo not given)", "inactive"],
  ["CNS(=O)(=O)CC1CCC(N(C)c2ncnc3[nH]ccc23)CC1 (stereo not given)", "inactive"],
  ["CC(C)c1nnc(-c2ccc(-c3ccccc3)nc2)n1-c1cccc2nonc12", "inactive"],
  ["COc1c2c(c(CO)c3c1C(=O)OC3)OC1(C)CCC3(O)C(C)(C)OC(=O)CCC3(C)C1C2 (stereo not given)", "inactive"],
  ["CC1=CC(=O)[C@H]2C(C)(C)CCC[C@]2(C)[C@@]1(O)CO", "inactive"]
]}

stdin: Fill blank: measured activity change, negative = cytotoxicity of the molecule COc1c2c(c(C)c3c1C(=O)OC3)OC1(C)CC(O)C34OC(OC)(CC(OC(C)=O)C3(C)C1C2)OC4(C)C (stereo not given) is ____.
stdout: inactive

stdin: Fill blank: measured activity change, negative = cytotoxicity of the molecule CC1(C)CC[C@]2(C(=O)O[C@@H]3O[C@H](CO)[C@@H](O)[C@H](O)[C@H]3O)CC[C@]3(C)C(=CCC4[C@@]5(C)C[C@@H](O)[C@H](O)[C@@](C)(CO)C5CC[C@]43C)C2[C@@H]1O (stereo not given in full) is ____.
stdout: inactive

stdin: Fill blank: measured activity change, negative = cytotoxicity of the molecule `C[C@@H]1O[C@@H](O[C@@H]2[C@@H](O)[C@@H](O[C@]3(CO)O[C@H](CO)[C@@H](O)[C@@H]3OC(=O)/C=C/c3ccc(O)cc3)O[C@H](CO)[C@H]2OC(=O)/C=C/c2ccc(O)cc2)[C@H](O)[C@H](O)[C@H]1O[C@@H]1O[C@@H](C)[C@H](O[C@@H]2OC[C@](O)(CO)[C@H]2O)[C@@H](O)[C@H]1O` is ____.
stdout: 8.98% [at 11.6 µM] (inactive)

stdin: Fill blank: measured activity change, negative = cytotoxicity of the molecule CN1C2CCC1CC(OC(=O)[C@H](CO)c1ccccc1)C2 (stereo not given in full) is ____.
stdout: inactive

stdin: Fill blank: measured activity change, negative = cytotoxicity of the molecule `N#C[C@@H]1CCCN1C(=O)CNC12CC3CC(CC(O)(C3)C1)C2` is ____.
stdout: inactive

stdin: Fill blank: measured activity change, negative = cytotoxicity of the molecule `O=C(CCc1ccccc1)N1CCC(O)(Cn2cnc3cc(Cl)ccc3c2=O)CC1` is ____.
stdout: inactive

stdin: Fill blank: measured activity change, negative = cytotoxicity of the molecule `COc1cc2c(cc1O)[C@H](c1ccc(O[C@@H]3O[C@H](CO)[C@@H](O)[C@H](O)[C@H]3O)c(OC)c1)[C@@H](CO)[C@](O)(CO)C2` is ____.
stdout: inactive

stdin: Fill blank: measured activity change, negative = cytotoxicity of the molecule `CC(C)C[C@H](CC(=O)NO)C(=O)N[C@H](C(=O)N[C@@H](C)C(=O)NCCN)C(C)(C)C` is ____.
stdout: 18.9% [at 11.6 µM] (inactive)

stdin: Fill blank: measured activity change, negative = cytotoxicity of the molecule CC1OC(OCC2OC(OC3CCC4(C)C(CCC5(C)C4CC=C4C6CC(C)(C)CCC6(C(=O)OC6OC(CO)C(O)C(O)C6O)CCC45C)C3(C)CO)C(O)C(O)C2O)C(O)C(O)C1O (stereo not given) is ____.
stdout: 10.1% [at 11.6 µM] (inactive)

###

- protocol.details: Primary qHTS for inhibitors of nuclear receptor binding SET domain protein 2 (NSD2) in an RCH-ACV wild type WT cells (2C) (AID 1645877); further: nearly all actives have a fitted effect of over 70% in size
- stated.conditions: RCH-ACV (leukaemia line) NSD2 WT (2C) viability, CellTiter-Glo, 72 h; series mostly up to 44.9 µM
Records with an inconclusive call do not appear. Calls of active or inactive are those of the source. Calls come from the whole dose curve; as a rule, active = well fitted inhibition curve with a large enough effect; inconclusive = small, poorly fitted or top-dose-only effect; inactive = no such curve, though single readings can be large or run the other way. Where a SMILES comes first, the peptide text is derived from it. [ ]: non-standard residue; d: D form. dPhe(4-Cl) = N[C@H](Cc1ccc(Cl)cc1)C(=O)O; d2Nal = N[C@H](Cc1ccc2ccccc2c1)C(=O)O; dCit = NC(=O)NCCC[C@@H](N)C(=O)O; d3Pal = N[C@H](Cc1cccnc1)C(=O)O
I would appreciate it if you answered using one of these outcomes: active, inactive

stdin: What outcome does the record of this test show for CC1(C)CC(=O)C2=C(C1)NC(=S)NC2c1cccc(O)c1 (centres undefined) ?
stdout: active

stdin: What outcome does the record of this test show for CC(C)(O[C@@H]1O[C@H](CO)[C@@H](O)[C@H](O)[C@H]1O)C(OC(=O)/C=C\c1ccc(O)cc1)C(=O)OCc1ccc(O[C@@H]2O[C@H](CO)[C@@H](O)[C@H](O)[C@H]2O)cc1 (some centres undefined) ?
stdout: inactive

stdin: What outcome does the record of this test show for CC(=O)N[C@H](Cc1ccc2ccccc2c1)C(=O)N[C@H](Cc1ccc(Cl)cc1)C(=O)N[C@H](Cc1cccnc1)C(=O)N[C@@H](CO)C(=O)N[C@@H](Cc1ccc(O)cc1)C(=O)N[C@H](CCCNC(N)=O)C(=O)N[C@@H](CC(C)C)C(=O)N[C@@H](CCCN=C(N)N)C(=O)N1CCC[C@H]1C(=O)N[C@H](C)C(N)=O (Ac-[d2Nal][dPhe(4-Cl)][d3Pal]SY[dCit]LRP[dA]-NH2) ?
stdout: inactive

stdin: What outcome does the record of this test show for CC1=C(C)C(=O)OC(C(C)C2CCC3C4CC=C5CC(OC6OC(COC7OC(CO)C(O)C(O)C7O)C(O)C(O)C6O)CC(O)C5(C)C4CCC23C)C1 (centres undefined) ?
stdout: inactive

stdin: What outcome does the record of this test show for `CC1=CC(=O)[C@H]2C(C)(C)CCC[C@]2(C)[C@@]1(O)CO` ?
stdout: inactive

stdin: What outcome does the record of this test show for `CC(C)[C@@](C)(O)[C@@H]1CN(c2nc(-c3[nH]nc4ncccc34)c(F)cc2Cl)CCN1` ?
stdout: active

stdin: What outcome does the record of this test show for `CS(=O)(=O)N(CC(=O)NCC1CC1)c1cc(C(F)(F)F)ccc1Cl` ?
stdout: inactive

stdin: What outcome does the record of this test show for `COc1cc(N2CCOCC2)ccc1Nc1ncc(Cl)c(Nc2ccccc2NS(C)(=O)=O)n1` ?
stdout: active

stdin: What outcome does the record of this test show for CC1CC2OC3(OC2C(C)(C)O)C1C1(C)CCC24CC25CCC(O[C@@H]2OC[C@@H](O)[C@H](O)[C@H]2O)C(C)(C)C5CC=C4C1(C)C3O (some centres undefined) ?
stdout: inactive

// data source = PubChem BioAssay (NCATS)
